- test_target: rat Bsep (rBsep) (Rattus norvegicus)
- Sequence (O70127 whole entry): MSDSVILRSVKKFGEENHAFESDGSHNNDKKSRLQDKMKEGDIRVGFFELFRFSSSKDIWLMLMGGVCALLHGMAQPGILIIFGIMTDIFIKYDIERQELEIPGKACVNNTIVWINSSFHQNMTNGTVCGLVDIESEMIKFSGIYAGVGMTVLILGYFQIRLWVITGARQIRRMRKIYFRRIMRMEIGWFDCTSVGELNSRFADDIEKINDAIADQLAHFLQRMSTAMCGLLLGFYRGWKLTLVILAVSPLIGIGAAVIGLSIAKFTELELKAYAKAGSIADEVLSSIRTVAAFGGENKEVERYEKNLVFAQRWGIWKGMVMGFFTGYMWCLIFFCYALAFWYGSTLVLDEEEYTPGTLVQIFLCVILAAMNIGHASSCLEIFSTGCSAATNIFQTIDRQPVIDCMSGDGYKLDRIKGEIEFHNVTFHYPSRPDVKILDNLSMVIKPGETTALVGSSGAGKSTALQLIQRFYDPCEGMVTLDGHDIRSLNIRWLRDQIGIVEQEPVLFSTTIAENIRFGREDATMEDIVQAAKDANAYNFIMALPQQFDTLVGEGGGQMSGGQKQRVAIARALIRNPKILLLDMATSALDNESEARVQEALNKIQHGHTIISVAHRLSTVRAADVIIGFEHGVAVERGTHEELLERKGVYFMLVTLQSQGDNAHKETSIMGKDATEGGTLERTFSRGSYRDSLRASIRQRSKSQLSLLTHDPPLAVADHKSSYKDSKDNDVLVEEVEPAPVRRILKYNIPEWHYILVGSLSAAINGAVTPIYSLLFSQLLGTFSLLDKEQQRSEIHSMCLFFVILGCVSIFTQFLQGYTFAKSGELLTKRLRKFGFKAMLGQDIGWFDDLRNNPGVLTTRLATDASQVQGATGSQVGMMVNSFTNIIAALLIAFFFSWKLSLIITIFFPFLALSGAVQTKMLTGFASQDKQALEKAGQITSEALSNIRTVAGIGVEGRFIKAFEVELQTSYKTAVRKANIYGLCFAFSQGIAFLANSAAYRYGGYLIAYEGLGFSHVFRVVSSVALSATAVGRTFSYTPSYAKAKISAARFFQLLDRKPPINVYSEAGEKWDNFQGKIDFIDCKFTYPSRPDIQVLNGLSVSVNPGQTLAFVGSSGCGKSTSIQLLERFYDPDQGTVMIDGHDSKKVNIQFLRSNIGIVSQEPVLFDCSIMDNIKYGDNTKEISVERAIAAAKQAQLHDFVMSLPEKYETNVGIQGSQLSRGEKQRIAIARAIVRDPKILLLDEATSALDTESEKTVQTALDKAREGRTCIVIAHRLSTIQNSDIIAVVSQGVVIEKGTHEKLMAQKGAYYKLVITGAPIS
- protocol_notes: Inhibition of [3H]-taurocholate uptake into rBsep membrane vesicles
- Format: biochemical
- run_conditions: read-out: IC50, [3H]-taurocholate uptake into vesicles expressing rBsep; geometric mean, 95% CL 109.8–153.2, n = 5
property_measured: IC50

> print(dat)
                                 cpd.smiles                           test.target  assay.value
1  O=C(O)c1cc2cc(O)ccc2n1Cc1ccc(Cl)c(C(F)(F)F)c1  rat Bsep (rBsep) (Rattus norvegicus)       130 µM
